# ASSAYED_SYSTEM: human cathepsin F (Homo sapiens)
# Sequence (Q9UBX1 271-484): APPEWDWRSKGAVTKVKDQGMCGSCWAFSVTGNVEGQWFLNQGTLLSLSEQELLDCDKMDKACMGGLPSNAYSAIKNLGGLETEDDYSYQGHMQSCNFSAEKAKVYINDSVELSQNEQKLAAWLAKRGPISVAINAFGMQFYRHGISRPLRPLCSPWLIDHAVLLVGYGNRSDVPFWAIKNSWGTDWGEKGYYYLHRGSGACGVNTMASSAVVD
pIC50: −log10 of the molar value.
ATTRIBUTE_MEASURED: pIC50

Solved entries (count: 3):
COMPOUND | ASSAYED_SYSTEM | ATTRIBUTE_MEASURED | DATA_VALUE
N#CC(NC(=O)[C@@H]1CC(F)(F)CC[C@H]1c1oc(C(F)(F)C(F)(F)F)nc1-c1ccc(C(=O)N2CCOCC2)cc1)C1CCOCC1 (single isomer, unassigned) [Example 145] | human cathepsin F (Homo sapiens) | pIC50 | 5.96
N#CC1(NC(=O)[C@@H]2CCCC[C@H]2c2oc(-c3ccccc3OC(F)(F)F)nc2-c2ccc(N3CCS(=O)(=O)CC3)cc2)CC1 [Example 63] | human cathepsin F (Homo sapiens) | pIC50 | 6.19
CC(C)(C#N)NC(=O)[C@@H]1CCCC[C@H]1c1oc(-c2ccc(F)cc2F)nc1-c1ccc(N2CCS(=O)(=O)CC2)cc1 [Example 43] | human cathepsin F (Homo sapiens) | pIC50 | 5.78

[A] N#CCNC(=O)[C@@H]1CCCC[C@H]1c1oc(-c2ccc(F)cc2F)nc1-c1ccc(N2CCS(=O)(=O)CC2)cc1 [Example 44]
[B] N#CC1(NC(=O)[C@@H]2C[C@@H](F)CC[C@H]2c2oc(C(F)(F)C(F)(F)F)nc2-c2ccc(N3CCS(=O)(=O)CC3)cc2)CC1 [Example 42]
Exercise: Please indicate which has the smaller reported pIC50: A , or B . Identify your pick by its label.
Solution: B

* * *

# ASSAYED_SYSTEM: human cathepsin K (UniProt P43236)
# PROCEDURE_DETAILS: Cathepsin K Assay (hrbCat K)
# Format: biochemical
# CONDITION_INFO: human cathepsin K 0.4 nM, Z-Leu-Arg-AMC 8 μM, pH 5.5, 15 min preincubation; read-out: hrbCat K IP
pIC50: −log10 of the molar value.
ATTRIBUTE_MEASURED: pIC50

CHEM_SMILES | pIC50
N#CC1(NC(=O)[C@@H]2CCCC[C@H]2c2oc(-c3ccc(Cl)c(F)c3)nc2-c2ccc(N3CCS(=O)(=O)CC3)cc2)CC1 | 8.96

[a] N#CC1(NC(=O)[C@@H]2CCCC[C@H]2c2oc(-c3cccc(OC(F)F)c3)nc2-c2ccc(N3CCS(=O)(=O)CC3)cc2)CC1
[b] N#CC1(NC(=O)[C@@H]2CCCC[C@H]2c2oc(-c3cccc(Cl)c3F)nc2-c2ccc(N3CCS(=O)(=O)CC3)cc2)CC1
Exercise: Larger number for pIC50: a , or b ? Identify your pick by its label.
Solution: b

* * *

Target sequence: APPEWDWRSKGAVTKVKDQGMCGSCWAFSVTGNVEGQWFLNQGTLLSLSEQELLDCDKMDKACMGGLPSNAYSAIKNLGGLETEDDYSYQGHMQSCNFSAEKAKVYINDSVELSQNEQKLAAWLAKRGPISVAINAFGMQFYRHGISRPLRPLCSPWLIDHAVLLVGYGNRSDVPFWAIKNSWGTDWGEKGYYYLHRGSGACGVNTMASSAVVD
ATTRIBUTE_MEASURED: IC50 (nM)

Solved entries (count: 2):
COMPOUND | UNIT_STRING | DATA_VALUE
N#CC1(NC(=O)[C@@H]2CCCC[C@H]2c2oc(-c3ccc(F)cc3)nc2-c2ccc(N3CCc4ccccc43)cc2)CC1 [Example 152] | nM | 839
N#CC1(NC(=O)[C@@H]2CCCC[C@H]2c2oc(-c3cncnc3)nc2-c2ccc(N3CCS(=O)(=O)CC3)cc2)CC1 [Example 35] | nM | 993

[1] C[C@@H](C#N)NC(=O)[C@@H]1CCCC[C@H]1c1oc(-c2ccc(F)cc2)nc1-c1ccc(N2CC[S+]([O-])CC2)cc1 [Example 141]
[2] CC(C)C(C#N)NC(=O)[C@@H]1CCCC[C@H]1c1oc(-c2ccc(F)cc2)nc1-c1ccc(N2CCS(=O)(=O)CC2)cc1 (single isomer, unassigned) [Example 123]
[3] CC(C)(O)C(C#N)NC(=O)[C@@H]1CCCC[C@H]1c1oc(-c2ccc(F)cc2)nc1-c1ccc(N2CCS(=O)(=O)CC2)cc1 (single isomer, unassigned) [Example 159]
Exercise: Rank descending by IC50. # answer = labels listed in requested order
Solution: 3, 2, 1

* * *

# ASSAYED_SYSTEM: human cathepsin F (Homo sapiens)
ATTRIBUTE_MEASURED: IC50 (µM)

Solved entries (count: 2):
COMPOUND | UNIT_STRING | DATA_VALUE
N#CC1(NC(=O)[C@@H]2CCCC[C@H]2c2sc(-c3ccc(F)cc3)nc2-c2ccc(N3CCS(=O)(=O)CC3)cc2)CC1 [Example 56] | µM | 0.722
N#CC1(NC(=O)[C@@H]2CCCC[C@H]2c2oc(C3CCC(C(F)(F)F)CC3)nc2-c2ccc(N3CCS(=O)(=O)CC3)cc2)CC1 (mixture of isomers) [Example 111] | µM | 1.06

[A] N#CC1(NC(=O)[C@@H]2CCCC[C@H]2c2oc(-c3cncc(N4CCS(=O)(=O)CC4)c3)nc2-c2ccc(N3CCS(=O)(=O)CC3)cc2)CC1 [Example 92]
[B] C[C@H]1CC(F)(F)CC[C@@H]1c1nc(-c2ccc(N3CCS(=O)(=O)CC3)cc2)c([C@@H]2CCCC[C@H]2C(=O)NC2(C#N)CC2)o1 [Example 108]
Exercise: Please indicate which has the smaller reported IC50: A , or B . Identify your pick by its label.
Solution: A
(A: 0.803 µM, B: 1.39 µM)

* * *

# ASSAYED_SYSTEM: UniProt:P43236
pIC50: −log10 of the molar value.
ATTRIBUTE_MEASURED: pIC50

CHEM_SMILES | ATTRIBUTE_MEASURED | DATA_VALUE
N#CC1(NC(=O)[C@@H]2CCCC[C@H]2c2oc(-c3ccc(C4CC4)cc3)nc2-c2ccc(N3CCS(=O)(=O)CC3)cc2)CC1 | pIC50 | 9.06
N#CC1(NC(=O)[C@@H]2CCCC[C@H]2c2oc(-c3ccc(F)cc3)nc2-c2ccc(N3CCS(=O)(=O)CC3)cc2)CC1 | pIC50 | 8.83
N#CC1(NC(=O)[C@@H]2CCCC[C@H]2c2oc(-c3ccccc3C3CC3)nc2-c2ccc(N3CCS(=O)(=O)CC3)cc2)CC1 | pIC50 | 9.29
N#CC1(NC(=O)[C@@H]2CCCC[C@H]2c2oc(-c3ccc(F)cc3F)nc2-c2ccc(N3CCS(=N)(=O)CC3)cc2)CC1 | pIC50 | 8.80

[1] N#CC1(NC(=O)[C@@H]2CCCC[C@H]2c2oc(-c3ccc(S(=O)(=O)C(F)(F)F)cc3)nc2-c2ccc(N3CCS(=O)(=O)CC3)cc2)CC1
[2] CS(=O)(=O)N1CCN(C(=O)c2ccc(-c3nc(-c4ccc(F)cc4F)oc3[C@@H]3CCCC[C@H]3C(=O)NC3(C#N)CC3)cc2)CC1
Exercise: Larger number for pIC50: 1 , or 2 ? Identify your pick by its label.
Solution: 1
(1: 8.62, 2: 8.04)

* * *

Target protein (sequence): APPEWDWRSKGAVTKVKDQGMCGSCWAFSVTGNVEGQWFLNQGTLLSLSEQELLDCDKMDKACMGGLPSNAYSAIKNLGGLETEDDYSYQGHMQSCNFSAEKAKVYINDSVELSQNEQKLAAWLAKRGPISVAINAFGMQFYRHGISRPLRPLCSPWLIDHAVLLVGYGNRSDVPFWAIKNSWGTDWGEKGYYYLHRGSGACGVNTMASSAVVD
ATTRIBUTE_MEASURED: IC50 (nM)

CHEM_SMILES | DATA_VALUE
CS(=O)(=O)C1CN(c2ccc(-c3nc(-c4ccc(F)cc4F)oc3[C@@H]3CCCC[C@H]3C(=O)NC3(C#N)CC3)cc2)C1 | 702

[P] N#CC1(NC(=O)[C@@H]2C[C@@H](F)CC[C@H]2c2oc(-c3ccc(F)cc3)nc2-c2ccc(N3CCS(=O)(=O)CC3)cc2)CC1
[Q] N#CC1(NC(=O)[C@@H]2CCCC[C@H]2c2oc(-c3ccccc3Cl)nc2-c2ccc(N3CCS(=O)(=O)CC3)cc2)CC1
Exercise: Please indicate which has the smaller reported IC50: P , or Q . Identify your pick by its label.
Solution: Q

[A] N#CC1(NC(=O)[C@@H]2CCCC[C@H]2c2oc(-c3cncc(F)c3)nc2-c2ccc(N3CCS(=O)(=O)CC3)cc2)CC1
[B] COc1ccc(-c2nc(-c3ccc(N4CCS(=O)(=O)CC4)cc3)c([C@@H]3CCCC[C@H]3C(=O)NC3(C#N)CC3)o2)cc1
Exercise: Larger number for IC50: A , or B ? Identify your pick by its label.
Solution: A
(A: 1320 nM, B: 734 nM)

[A] Cc1nc(-c2ccc(N3CCS(=O)(=O)CC3)cc2)c([C@@H]2CCCC[C@H]2C(=O)NC2(C#N)CC2)o1
[B] N#CC1(NC(=O)[C@@H]2CCCC[C@H]2c2oc(-c3ccncc3F)nc2-c2ccc(N3CCS(=O)(=O)CC3)cc2)CC1
Exercise: Please indicate which has the smaller reported IC50: A , or B . Identify your pick by its label.
Solution: B
(B: 757 nM, A: 1330 nM)
